Tested on: A673 cells
assay: Cytotoxicity in A673 cells (Cell Titer Glo viability)
Type: cell-based
assay-setup: Homo sapiens, A673; read-out: Cellular Potency IC50 (nM) (in A673 cells)
result-type: log10 IC50 (log10 of the value in nM)
# values: log10(IC50), units nM

Before answering, review these 2 worked examples.
compound | measured-on | log10 IC50
c1ccc(-c2ccc(CNc3cc(NC4CNC4)nc4c(C5CC5)cnn34)cc2)nc1 | A673 cells | 1.24
COc1cc(CNc2cc(NC[C@H]3CCNC[C@@H]3O)nc3c(C4CC4)cnn23)ccc1-c1ccccn1 | A673 cells | 2.25

Ask: Query log10 IC50 for COc1cccnc1-c1ccc(CNc2cc(NC[C@H]3CCNC[C@@H]3O)nc3c(C(C)C)cnn23)cc1
Reply: 0.34

Ask: Query log10 IC50 for CC[C@H](CO)Nc1nc(NCc2ccc(-c3ccccn3)cc2)c2ncn(C(C)C)c2n1 [CR8, reference compound]
Reply: 1.93

Ask: Query log10 IC50 for Clc1cnn2c(NCc3ccc(-c4ccccn4)cc3)cc(N[C@H]3CCCNC3)nc12
Reply: 0.51

Ask: Query log10 IC50 for O[C@H]1CNCC[C@@H]1CNc1cc(NCc2ccc(-c3ccccc3)nc2)n2ncc(C3CC3)c2n1
Reply: 1.10

Ask: Query log10 IC50 for O[C@H]1CNCC[C@@H]1CNc1cc(NCc2ccc(-n3cccc3)cc2)n2ncc(C3CC3)c2n1
Reply: 0.26

Ask: Query log10 IC50 for c1ccc(-c2ccc(CNc3cc(O[C@@H]4CCNC4)nc4c(C5CC5)cnn34)cc2)nc1
Reply: 0.46

Ask: Query log10 IC50 for O=C1CC(CNc2cc(NCc3ccc(-c4ccccn4)cc3)n3ncc(C4CC4)c3n2)CCN1 (stereo not drawn)
Reply: 1.46
